We begin with a simple list: items and their reported IC50.
System: P388
ASSAY INFO: Cytotoxicity against mouse P388 cells
Type: functional, cell-based

{"columns": ["COMPOUND", "ASSAYED TARGET", "IC50, µg/mL"],
 "data": [
  ["CC/C=C/C(CC)CC(C)CC1(CC)C=C(CC)C(CC(=O)OC)OO1 (centres undefined)", "P388", 0.9],
  ["CCCCC(CC)CC(C)CC1(CC)C=C(CC)C(CC(=O)O)OO1 (centres undefined)", "P388", 0.2],
  ["CCCCC(CC)CC(C)CC1(CC)C=C(CC)C(CC(=O)OC)OO1 (centres undefined)", "P388", 0.2],
  ["CC/C=C/C(CC)CC(C)CC1(CC)C=C(CC)C(CC(=O)O)OO1 (centres undefined)", "P388", 0.3]
]}

###

We begin with a simple list: items and their reported MIC.
Tested on: Candida albicans
ASSAY INFO: Antimicrobial activity against Candida albicans ATCC 44506 by broth microdilution method
Type: functional

{"columns": ["COMPOUND", "MEASUREMENT UNITS", "SIGN QUALIFIER", "MIC"],
 "data": [
  ["CC/C=C/C(CC)CC(C)CC1(CC)C=C(CC)C(CC(=O)O)OO1 (centres undefined)", "µg/mL", "=", 1.6],
  ["CCCCC(CC)CC(C)CC1(CC)C=C(CC)C(CC(=O)OC)OO1 (centres undefined)", "µg/mL", ">", 50],
  ["CCCCC(CC)CC(C)CC1(CC)C=C(CC)C(CC(=O)O)OO1 (centres undefined)", "µg/mL", "=", 1.6],
  ["CC/C=C/C(CC)CC(C)CC1(CC)C=C(CC)C(CC(=O)OC)OO1 (centres undefined)", "µg/mL", ">", 50]
]}

###

Tested on: Aspergillus nidulans
ASSAY INFO: Antimicrobial activity against Aspergillus nidulans by at 20 ug/disk by disk diffusion method
Format: functional, organism-based
Active and inactive are the calls of the source. No cut-off for these calls is given here.
Labels: YES (active), NO (inactive)

{"columns": ["COMPOUND", "LABEL"],
 "data": [
  ["CC/C=C/C(CC)CC(C)CC1(CC)C=C(CC)C(CC(=O)O)OO1 (centres undefined)", "YES"],
  ["CCCCC(CC)CC(C)CC1(CC)C=C(CC)C(CC(=O)O)OO1 (centres undefined)", "YES"],
  ["CC/C=C/C(CC)CC(C)CC1(CC)C=C(CC)C(CC(=O)OC)OO1 (centres undefined)", "NO"],
  ["CCCCC(CC)CC(C)CC1(CC)C=C(CC)C(CC(=O)OC)OO1 (centres undefined)", "NO"]
]}
